This collection of values is drawn from patent US6818663B2.

# TARGET_SYSTEM: human cyclin D1-CDK4 (Homo sapiens)
# Sequence (P11802 whole entry): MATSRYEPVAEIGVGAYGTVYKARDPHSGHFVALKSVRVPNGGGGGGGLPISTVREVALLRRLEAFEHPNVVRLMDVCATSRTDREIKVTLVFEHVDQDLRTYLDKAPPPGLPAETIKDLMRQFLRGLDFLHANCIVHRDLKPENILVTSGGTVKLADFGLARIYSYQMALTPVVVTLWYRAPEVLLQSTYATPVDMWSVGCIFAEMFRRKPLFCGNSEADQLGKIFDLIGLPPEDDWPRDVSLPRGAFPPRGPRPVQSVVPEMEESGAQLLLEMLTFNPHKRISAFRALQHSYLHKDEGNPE
# Sequence (P24385 whole entry partner): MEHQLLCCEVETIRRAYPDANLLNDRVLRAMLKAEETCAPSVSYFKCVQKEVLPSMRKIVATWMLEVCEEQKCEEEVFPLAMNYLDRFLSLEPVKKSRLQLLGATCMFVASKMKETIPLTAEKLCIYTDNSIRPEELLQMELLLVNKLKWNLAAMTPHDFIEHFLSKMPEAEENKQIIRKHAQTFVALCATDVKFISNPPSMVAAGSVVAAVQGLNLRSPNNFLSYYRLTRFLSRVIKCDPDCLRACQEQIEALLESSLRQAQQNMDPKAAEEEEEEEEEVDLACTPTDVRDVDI
# TEST_SUMMARY: FlashPlate kinase assay, cyclin D1-CDK4, Rb substrate
# CONDITION_SUMMARY: recombinant cyclin D1-CDK4, Rb phosphorylation, 1 μM ATP
READOUT_TYPE: pIC50
One number for each entry, as −log10 of the molar value.

Each of the following entries comes with a recorded value; kindly state pIC50 for each.
1. CCc1cc(C(=O)c2sc(Nc3ccc(OC4CCCN(CC)C4)cc3)nc2N)ccc1F (stereo not shown)
2. CCNCCOc1ccc(Nc2nc(N)c(C(=O)c3ccc(F)c(CC)c3)s2)cc1

1: 7.26; 2: 7.28

---

# TARGET_SYSTEM: human cyclin D1-CDK4 (Homo sapiens)
# TEST_SUMMARY: FlashPlate kinase assay, cyclin D1-CDK4, Rb substrate
# CONDITION_SUMMARY: recombinant cyclin D1-CDK4, Rb phosphorylation, 1 μM ATP
Give measured IC50 for each item. Keep answers brief.
Answers are plain numbers, in nM.

• COc1ccc(C(=O)c2sc(Nc3ccc(OC4CCNC4)cc3)nc2N)cc1F (centres unmarked) = 39

Each of the following entries comes with a recorded value; kindly state IC50 for each.
1. CCc1cccc(C(=O)c2sc(Nc3ccc(OC4CCNC4)cc3)nc2N)c1 (centres unmarked)
2. CN(C)C(C)(C)COc1ccc(Nc2nc(N)c(C(=O)c3cccc(F)c3)s2)cc1
3. Nc1nc(Nc2ccc(OC[C@@H]3CCCN3)cc2)sc1C(=O)c1cccc(F)c1
4. CCc1ccc(C(=O)c2sc(Nc3ccc(OCCN4CCCC4)cc3)nc2N)cc1F
5. Nc1nc(Nc2ccc(OCCN3CCCC3)cc2)sc1C(=O)c1cccc(C(F)(F)F)c1
6. CCc1cc(C(=O)c2sc(Nc3ccc(OC[C@@H](C)N(C)C)cc3)nc2N)ccc1F
7. CCN(CC)CCOc1ccc(Nc2nc(N)c(C(=O)c3ccc4c(c3)C(C)CO4)s2)cc1 (centres unmarked)

[51, 92, 38, 43, 65, 80, 70]

Each of the following entries comes with a recorded value; kindly state IC50 for each.
1. C[C@H](COc1ccc(Nc2nc(N)c(C(=O)c3cccc(F)c3)s2)cc1)N1CCCC1
2. CCc1cccc(C(=O)c2sc(Nc3ccc(OCCN(C)C)cc3)nc2N)c1

1. 63
2. 27

Each of the following entries comes with a recorded value; kindly state IC50 for each.
1. Cc1ccc(C(=O)c2sc(Nc3ccc(OCC(C)(C)N(C)C)cc3)nc2N)cc1F
2. CCN1CCCC(Oc2ccc(Nc3nc(N)c(C(=O)c4cccc(F)c4)s3)cc2)C1 (centres unmarked)
3. Nc1nc(Nc2ccc(OC3CCNC3)cc2)sc1C(=O)c1cccc(F)c1 (centres unmarked)
4. COc1cccc(C(=O)c2sc(Nc3ccc(OCCN(C)C)cc3)nc2N)c1
5. CCNCCOc1ccc(Nc2nc(N)c(C(=O)c3ccc4c(c3)CCO4)s2)cc1
6. COc1cccc(C(=O)c2sc(Nc3ccc(OC[C@@H](C)N4CCCC4)cc3)nc2N)c1
7. CCN1CCC(Oc2ccc(Nc3nc(N)c(C(=O)c4cccc(C)c4)s3)cc2)C1 (centres unmarked)
8. CCc1cccc(C(=O)c2sc(Nc3ccc(OC4CCCNC4)cc3)nc2N)c1 (centres unmarked)

[97, 59, 39, 87, 91, 60, 49, 34]

Each of the following entries comes with a recorded value; kindly state IC50 for each.
1. Cc1ccc(C(=O)c2sc(Nc3ccc(OC4CCNC4)cc3)nc2N)cc1F (centres unmarked)
2. Cc1cccc(C(=O)c2sc(Nc3ccc(OC[C@@H]4CCCN4C)cc3)nc2N)c1

86
86
